// data source = ChEMBL document CHEMBL1240425

assay: Antiproliferative activity against human MCF10A cells after 48 hrs by SRB assay; assay type: cell-based, MCF-10A
observedProperty: GI50 at 48 h (µM)
Give the value, in units of µM, as a plain number.

Quick one: GI50 at 48 h for CN1CCN(CCCNc2ccnc3cc(C(F)(F)F)ccc23)CC1 ? 51.7

Please report the recorded GI50 at 48 h for O=C1C(=O)N(CCCNc2ccnc3cc(C(F)(F)F)ccc23)c2cc(Br)ccc21 . 14.6

Quick check: GI50 at 48 h of O=C1C(=O)N(CCCNc2ccnc3cc(C(F)(F)F)ccc23)c2ccccc21 ? 46.8

State the recorded GI50 at 48 h for this entry: CCN(CC)CCCNc1ccnc2cc(Cl)ccc12 65.3

Field request: GI50 at 48 h | item: O=C1C(=O)N(CCCNc2ccnc3cc(C(F)(F)F)ccc23)c2cc(Cl)ccc21 25.2

Which GI50 at 48 h reading was recorded for the compound O=C1C(=O)N(CCCNc2ccnc3cc(C(F)(F)F)ccc23)c2cccc(Cl)c21 ? 20.2

What value of GI50 at 48 h has been reported for the following compound? FC(F)(F)c1ccc2c(NCCCN3CCN(c4ccnc5cc(C(F)(F)F)ccc45)CC3)ccnc2c1 30

Please report the recorded GI50 at 48 h for Clc1ccc2c(NCCCN3CCCCC3)ccnc2c1 . 47.8

Given the entry Clc1ccc2c(NCCCN3CCN(c4ccccc4)CC3)ccnc2c1 , report its measured GI50 at 48 h. 12.6

Param item = O=C1C(=O)N(CCCNc2ccnc3cc(C(F)(F)F)ccc23)c2cccc(Br)c21 ; retrieve measured GI50 at 48 h. 33.7

Can you look up the measured GI50 at 48 h of Clc1ccc2c(NCCCN3CCCC3)ccnc2c1 for me? 45.8
